tgt: T1, human MSLN-R3 on HEK293T-hMSLN-R3 recombinant cells (human, UniProt Q13421 487-606)
T1 construct: the C-terminal limit is uncertain; also called human MSLN-R3 membrane protein
protocolDetails: FACS, HEK293T-hMSLN-R3 cells
valueType: Maximum_MFI
Quick note: number first, unit second.

Which Maximum_MFI value belongs to F7.44.20-H5 (scFv, not shown: small tags and cut ends, also called S009-F7.44.20 humanized antibody VH1a + VL1) scFv: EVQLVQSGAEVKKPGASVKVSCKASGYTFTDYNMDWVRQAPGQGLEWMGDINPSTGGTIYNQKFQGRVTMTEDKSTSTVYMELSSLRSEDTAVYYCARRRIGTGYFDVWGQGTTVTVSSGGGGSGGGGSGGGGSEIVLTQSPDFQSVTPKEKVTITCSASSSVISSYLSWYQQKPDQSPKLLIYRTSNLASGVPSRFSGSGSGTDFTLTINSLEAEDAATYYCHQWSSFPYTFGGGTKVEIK ? 1700 MFI

Which Maximum_MFI value belongs to F7.44.20-H3 (scFv, not shown: small tags and cut ends, also called S009-F7.44.20 humanized antibody VH1 + VL3) scFv: EVQLVQSGAEVKKPGASVKVSCKASGYTFTDYNMDWVRQAPGQGLEWMGDINPSTGGTIYNQKFNGRVTMTEDKSTSTVYMELSSLRSEDTAVYYCARRRIGTGYFDVWGQGTTVTVSSGGGGSGGGGSGGGGSEIVLTQSPATLSLSPGERATLSCSASSSVISSYLSWYQQKPGQSPRLLIYRTSNLASGIPARFSGSGSGTDYTLTISSLEPEDFAVYYCHQWSSFPYTFGGGTKVEIK ? 1490 MFI

Which Maximum_MFI value belongs to F7.44.20-H7 (scFv, not shown: small tags and cut ends, also called S009-F7.44.20 humanized antibody VH1a + VL3) scFv: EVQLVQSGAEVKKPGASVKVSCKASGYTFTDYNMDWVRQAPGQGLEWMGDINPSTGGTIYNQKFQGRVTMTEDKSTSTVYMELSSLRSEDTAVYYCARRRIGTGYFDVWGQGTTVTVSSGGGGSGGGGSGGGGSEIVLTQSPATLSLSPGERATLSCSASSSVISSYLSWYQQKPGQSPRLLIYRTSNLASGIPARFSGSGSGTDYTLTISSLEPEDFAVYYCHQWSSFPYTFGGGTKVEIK ? 1510 MFI

The measured values listed here are drawn from patent US20250250357A1.
